pKi: −log10 of the molar value.
Below are molecules with their pKi as measured on Peptidyl-prolyl cis-trans isomerase FKBP1A (Rattus norvegicus, UniProt Q62658).
Sequence (Q62658 whole entry): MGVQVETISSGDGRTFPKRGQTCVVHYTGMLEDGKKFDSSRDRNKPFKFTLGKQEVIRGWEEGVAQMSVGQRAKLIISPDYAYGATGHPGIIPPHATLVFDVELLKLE
endpoint.name: pKi

Consider the worked cases shown below.
CCC(C)(C)C(=O)C(=O)N1CCC[C@H]1C(=O)CCCCc1c(F)c(F)c(C(F)(F)F)c(F)c1F; 6.89
CCC(C)(C)C(=O)C(=O)N1CCC[C@H]1C(=O)OCCCc1cccnc1; 8.12
CCC(C)(C)C(=O)C(=O)N1CCC[C@H]1C(=O)CCCCc1ccc(O)cc1; 6.62
CCC(C)(C)C(=O)C(=O)N1CCC[C@H]1C(=O)CCCCCc1ccccc1; 5.42

[A] CC(C)(C)C(=O)C(=O)N1CCC[C@H]1C(=O)CCCc1ccccc1
[B] O=C(C(=O)N1CCC[C@H]1C(=O)CCCCc1ccccc1)c1ccccc1
-- ask Lab note: check whether A or B has the lower measured pKi. Your answer should be the label attached to the chosen record.
-- reply B
